- system: Adenosine receptor A3 (Homo sapiens, UniProt P0DMS8); note: in other assays of this panel Not Active means under 50% inhibition at 10 µM;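 note: radioligand binding assay with AB-MECA serving as the labeled ligand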
- Sequence (P0DMS8 whole entry): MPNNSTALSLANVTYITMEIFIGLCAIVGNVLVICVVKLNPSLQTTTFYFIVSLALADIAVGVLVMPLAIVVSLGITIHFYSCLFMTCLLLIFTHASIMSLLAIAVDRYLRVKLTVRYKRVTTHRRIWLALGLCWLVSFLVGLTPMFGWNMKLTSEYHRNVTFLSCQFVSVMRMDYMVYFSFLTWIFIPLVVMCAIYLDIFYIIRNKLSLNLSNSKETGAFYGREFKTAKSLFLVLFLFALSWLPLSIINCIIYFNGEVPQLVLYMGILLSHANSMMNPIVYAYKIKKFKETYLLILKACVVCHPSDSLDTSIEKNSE
- Assay type: cell membranes, CHO-K1, Membrane
- conditions.used: cho-k1
Where a SMILES comes first, the peptide text is derived from it. Bridges are numbered along the chain shown (N, C = ends). [ ]: non-standard residue; d: D form. The star is where a group is joined. Threoninol(2S,3R) = C[C@@H](O)[C@H](CO)N*
property: IC50

| molecule | system | recorded.result |
| --- | --- | --- |
| C[C@@H](O)[C@H](CO)NC(=O)[C@@H]1CSSC[C@H](NC(=O)[C@H](N)Cc2ccccc2)C(=O)N[C@@H](Cc2ccccc2)C(=O)N[C@H](Cc2c[nH]c3ccccc23)C(=O)N[C@@H](CCCCN)C(=O)N[C@@H]([C@@H](C)O)C(=O)N1 (H-[dF]CF[dW]KTC-{Threoninol(2S,3R)}; disulfide 2-7) | Adenosine receptor A3 (Homo sapiens, UniProt P0DMS8) | Not Active |
| C=C1CC[C@H](O)C/C1=C/C=C1\CCC[C@]2(C)[C@@H]([C@H](C)CCCC(C)C)CC[C@@H]12 [CHOLECALCIFEROL] | Adenosine receptor A3 (Homo sapiens, UniProt P0DMS8) | Not Active |
